The measurements presented in this section are drawn from patent US8735387B2.

Collected % Activation (Edg-1 receptor activation in percent of the activation by 10 μM S1P) values appear next to each entry.
Measurement target: human Edg-1 receptor (Homo sapiens, UniProt P21453)
Construct: expressed in transfected cells; membrane preparation
Sequence (P21453 whole entry): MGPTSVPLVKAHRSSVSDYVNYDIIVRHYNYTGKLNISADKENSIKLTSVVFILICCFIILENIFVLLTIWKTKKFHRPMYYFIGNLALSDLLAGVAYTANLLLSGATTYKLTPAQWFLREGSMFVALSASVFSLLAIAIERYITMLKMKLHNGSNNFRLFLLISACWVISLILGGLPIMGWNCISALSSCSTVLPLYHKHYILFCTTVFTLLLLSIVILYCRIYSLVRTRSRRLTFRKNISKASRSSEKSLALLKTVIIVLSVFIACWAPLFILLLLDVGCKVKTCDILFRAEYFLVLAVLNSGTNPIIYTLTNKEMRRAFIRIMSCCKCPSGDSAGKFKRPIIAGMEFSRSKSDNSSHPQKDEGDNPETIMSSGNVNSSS
Test details: GTP-γ-S assay using human Edg-1 receptors (scintillation proximity assay, membrane preparation from CHO Flp-In cell line)
Type: biochemical
Measurement conditions: example compound at 10 μM; relative to 10 μM S1P; GTP-γ-S SPA, human Edg-1 membranes
Parameter: % Activation (Edg-1 receptor activation in percent of the activation by 10 μM S1P)

[[record]]
smiles_input = "CCCOc1nc(Cc2ccccc2)nc2oc(-c3cccc(OC)c3)nc12"
reading = "105%"

[[record]]
smiles_input = "CCCOc1nc(CN2CCOCC2)nc2oc(-c3cccc(OC)c3)nc12"
reading = "119%"

[[record]]
smiles_input = "C=C(C)COc1nc(Cc2ccc(Cl)cc2)nc2oc(-c3cccnc3)nc12"
reading = "94%"

[[record]]
smiles_input = "CCCOc1nc(Cn2cncc2C(=O)OC)nc2oc(-c3cccc(F)c3)nc12"
reading = "64%"

[[record]]
smiles_input = "CCCOc1nc(CN2CCCOCC2)nc2oc(-c3ccc(Cl)c(Cl)c3)nc12"
reading = "103%"

[[record]]
smiles_input = "CCCOc1nc(CN2CCCOCC2)nc2oc(-c3ccc(OC)c(F)c3)nc12"
reading = "106%"

[[record]]
smiles_input = "C=C(C)COc1nc(Cc2ccc(Cl)cc2)nc2oc(-c3cccc(C)c3)nc12"
reading = "80%"

[[record]]
smiles_input = "CCCOc1nc(CN2CCOCC2)nc2oc(-c3cc(Cl)ccc3OC)nc12"
reading = "72%"

[[record]]
smiles_input = "Fc1cccc(-c2nc3c(OCC4CC4)nc(CCc4ccc(Cl)cc4)nc3o2)c1"
reading = "23%"


---

Measurement target: human Edg-1 receptor (Homo sapiens, UniProt P21453)
Construct: expressed in transfected cells; membrane preparation
Test details: GTP-γ-S assay using human Edg-1 receptors (scintillation proximity assay, membrane preparation from CHO Flp-In cell line)
Type: biochemical
Measurement conditions: example compound at 10 μM; relative to 10 μM S1P; GTP-γ-S SPA, human Edg-1 membranes; read-out: % Activation (Edg-1 receptor activation in percent of the activation by 10 μM S1P)
Collected activation at 10 µM values appear next to each entry.
Parameter: activation at 10 µM (%)

[[record]]
compound = "CCCOc1nc(Cc2ccc(Cl)cc2)nc2oc(-c3cc(C)c(OCC(=O)O)c(C)c3)nc12"
parameter = "activation at 10 µM"
reading = 111

[[record]]
compound = "CCCOc1nc(Cc2ccc(Cl)cc2)nc2oc(-c3cc(C)c(OCC(O)CN)c(C)c3)nc12 (centres unmarked)"
parameter = "activation at 10 µM"
reading = 299

[[record]]
compound = "CCOc1nc(C(C)c2ccccc2)nc2oc(-c3cccc(F)c3)nc12 (centres unmarked)"
parameter = "activation at 10 µM"
reading = 104

[[record]]
compound = "Cc1cccc(-c2nc3c(OCC4CC4)nc(CC(C)(C)c4ccccc4)nc3o2)c1"
parameter = "activation at 10 µM"
reading = 37

[[record]]
compound = "CCOc1nc(Cc2ccc(Cl)cc2)nc2oc(-c3cc(C)c(OCC(O)CSc4nnc(C(C)C)[nH]4)c(C)c3)nc12 (centres unmarked)"
parameter = "activation at 10 µM"
reading = 83

[[record]]
compound = "CCCOc1nc(CN2CCOCC2)nc2oc(-c3cccc(O)c3)nc12"
parameter = "activation at 10 µM"
reading = 105

[[record]]
compound = "CCCOc1nc(C(C)c2ccccc2)nc2oc(-c3cccc(C)c3)nc12 (centres unmarked)"
parameter = "activation at 10 µM"
reading = 119

[[record]]
compound = "CCCOc1nc(Cc2ccc(Cl)c(Cl)c2)nc2oc(-c3cccc(C)c3)nc12"
parameter = "activation at 10 µM"
reading = 39

